- system.tested: Proto-oncogene tyrosine-protein kinase Src (Homo sapiens, UniProt P12931)
- Sequence (P12931 2-536 limits assumed): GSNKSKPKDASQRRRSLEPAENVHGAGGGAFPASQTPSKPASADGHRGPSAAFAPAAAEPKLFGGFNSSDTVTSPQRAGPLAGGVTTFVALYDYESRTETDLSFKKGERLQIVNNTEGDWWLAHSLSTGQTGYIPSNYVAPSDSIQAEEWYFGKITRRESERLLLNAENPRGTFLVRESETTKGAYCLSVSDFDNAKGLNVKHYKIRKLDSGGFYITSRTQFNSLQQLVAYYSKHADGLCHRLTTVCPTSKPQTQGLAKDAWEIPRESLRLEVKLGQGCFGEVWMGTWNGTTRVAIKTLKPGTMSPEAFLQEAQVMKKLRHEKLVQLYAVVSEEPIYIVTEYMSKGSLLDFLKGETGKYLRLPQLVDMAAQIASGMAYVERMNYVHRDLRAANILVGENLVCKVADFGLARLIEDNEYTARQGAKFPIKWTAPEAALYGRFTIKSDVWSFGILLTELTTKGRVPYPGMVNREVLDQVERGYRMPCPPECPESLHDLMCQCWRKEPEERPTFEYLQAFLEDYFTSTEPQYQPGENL
value.kind: IC50 (nM)

COc1cccc(-c2cn(-c3ccc(CCN4CCC(O)CC4)cc3)c3ncnc(N)c23)c1	0.4

Data provenance is BindingDB's records for doi:10.3109/14756366.2012.715288.
